Experiment: Tissue distribution study (dorsal root ganglia) in SD rats
Assay type: in vivo
Conditions: male, rat, oral administration 10 mg/kg, Time 2 h
Readout kind: concentration at 2 h (ng/g)
Please reply with the bare figure in ng/g and do not write the unit itself.

INSERT INTO assay_data (compound, readout_number) VALUES
  ('COc1c([C@@H]2C[C@](C)(C(F)(F)F)SC2C(=O)Nc2ccnc([N+](=O)[O-])c2)ccc(F)c1F (stereo in doubt) [a-7-A]', 768);

Shifting focus to the compound that follows.
# lookup: concentration at 2 h of COc1c(C2CC(C)(C(F)(F)F)SC2C(=O)Nc2ccnc(C(N)=O)c2)ccc(F)c1F (single isomer, unassigned) [Compound 139-A]
973
